# Tgt: DNMT1 (Homo sapiens)
# Measurement protocol: Selective depletion of DNMT1 by Western blot in treated HCT116 cells
# Assay type: cell-based
# Set-up: Protein extracts (equivalent to 100 μg) were isolated from HCT116 cells; endogenous in cells; host or cells: HCT116
# Setup conditions: 100 μM
# Sequence (P26358 whole entry): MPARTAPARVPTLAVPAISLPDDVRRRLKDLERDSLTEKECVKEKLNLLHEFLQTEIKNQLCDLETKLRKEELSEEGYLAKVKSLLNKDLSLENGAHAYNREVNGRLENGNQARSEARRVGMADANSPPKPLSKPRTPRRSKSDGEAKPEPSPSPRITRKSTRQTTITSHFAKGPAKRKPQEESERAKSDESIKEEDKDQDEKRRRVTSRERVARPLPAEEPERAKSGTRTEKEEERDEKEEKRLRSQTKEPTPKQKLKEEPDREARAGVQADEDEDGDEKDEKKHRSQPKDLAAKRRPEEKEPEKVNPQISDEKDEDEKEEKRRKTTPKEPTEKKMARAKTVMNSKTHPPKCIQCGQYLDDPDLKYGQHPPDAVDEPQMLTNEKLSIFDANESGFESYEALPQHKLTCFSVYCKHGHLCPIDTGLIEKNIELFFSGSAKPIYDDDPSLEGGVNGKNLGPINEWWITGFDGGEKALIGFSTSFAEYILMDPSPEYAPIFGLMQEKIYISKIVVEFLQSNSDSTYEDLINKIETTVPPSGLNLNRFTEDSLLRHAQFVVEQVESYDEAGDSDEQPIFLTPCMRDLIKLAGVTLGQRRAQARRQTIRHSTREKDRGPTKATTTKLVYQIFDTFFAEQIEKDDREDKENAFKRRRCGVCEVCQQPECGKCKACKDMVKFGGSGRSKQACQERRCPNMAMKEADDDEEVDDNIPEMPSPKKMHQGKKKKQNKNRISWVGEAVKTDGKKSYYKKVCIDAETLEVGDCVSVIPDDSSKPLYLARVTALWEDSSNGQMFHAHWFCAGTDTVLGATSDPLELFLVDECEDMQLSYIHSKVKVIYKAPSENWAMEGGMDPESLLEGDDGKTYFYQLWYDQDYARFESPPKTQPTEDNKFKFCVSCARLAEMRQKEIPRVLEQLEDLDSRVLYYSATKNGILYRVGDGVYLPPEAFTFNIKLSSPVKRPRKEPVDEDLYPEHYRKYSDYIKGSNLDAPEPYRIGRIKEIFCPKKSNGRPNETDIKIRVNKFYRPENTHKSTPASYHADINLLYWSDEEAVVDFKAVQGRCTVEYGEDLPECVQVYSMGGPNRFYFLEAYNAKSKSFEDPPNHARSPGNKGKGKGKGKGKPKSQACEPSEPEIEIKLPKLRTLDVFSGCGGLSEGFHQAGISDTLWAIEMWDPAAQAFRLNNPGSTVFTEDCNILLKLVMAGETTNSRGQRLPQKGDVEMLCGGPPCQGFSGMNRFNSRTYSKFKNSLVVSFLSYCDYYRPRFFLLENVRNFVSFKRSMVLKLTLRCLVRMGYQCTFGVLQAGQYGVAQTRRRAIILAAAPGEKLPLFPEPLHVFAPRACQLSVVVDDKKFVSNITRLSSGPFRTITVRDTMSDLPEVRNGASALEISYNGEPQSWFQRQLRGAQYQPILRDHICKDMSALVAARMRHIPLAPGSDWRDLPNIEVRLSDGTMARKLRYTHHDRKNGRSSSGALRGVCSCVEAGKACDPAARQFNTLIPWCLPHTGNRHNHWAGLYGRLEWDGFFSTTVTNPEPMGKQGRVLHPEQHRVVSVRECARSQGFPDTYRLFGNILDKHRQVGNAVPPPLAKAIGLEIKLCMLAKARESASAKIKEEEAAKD
Give % DNMT1 Level for every item shown.
Answer format: number, then unit.

Prompt: Output measured % DNMT1 Level for this item: C[n+]1ccc(Nc2cccc(C(=O)Nc3ccc(Nc4ccnc5cc([N+](=O)[O-])ccc45)cc3)c2)cc1.Cl.[Cl-]
Completion: 85%

Prompt: Output measured % DNMT1 Level for this item: CN(C)c1ccc2c(Nc3ccc(C(=O)Nc4ccc(Nc5cc[n+](C)cc5)cc4)cc3)ccnc2c1.Cl.[Cl-]
Completion: 32%

Prompt: Output measured % DNMT1 Level for this item: C[n+]1ccc(Nc2cccc(C(=O)Nc3ccc(Nc4ccnc5cc(N)ccc45)cc3)c2)cc1.Cl.[Cl-]
Completion: 73%

Prompt: Output measured % DNMT1 Level for this item: C[n+]1ccc(Nc2cccc(C(=O)Nc3ccc(Nc4ccnc5ccccc45)cc3)c2)cc1.Cl.[Cl-]
Completion: 34%

Prompt: Output measured % DNMT1 Level for this item: CN(C)c1ccc2c(Nc3ccc(NC(=O)c4ccc(Nc5cc[n+](C)cc5)cc4)cc3)ccnc2c1.Cl.[Cl-]
Completion: 52%

Prompt: Output measured % DNMT1 Level for this item: CN(C)c1ccc2c(Nc3ccc(C(=O)Nc4cccc(Nc5cc[n+](C)cc5)c4)cc3)ccnc2c1.Cl.[Cl-]
Completion: 87%

Prompt: Output measured % DNMT1 Level for this item: C[n+]1ccc(Nc2ccc(C(=O)Nc3ccc(Nc4ccnc5cc([N+](=O)[O-])ccc45)cc3)cc2)cc1.Cl.[Cl-]
Completion: 32%

Prompt: Output measured % DNMT1 Level for this item: C[n+]1ccc(Nc2ccc(C(=O)Nc3ccc(Nc4ccnc5ccccc45)cc3)cc2)cc1.Cl.[Cl-]
Completion: 74%

----------
# Test system: CMV-EE210 cell line
# Measurement protocol: Toxicity (TD50, cell viability) reported with the GFP assay
# Setup conditions: Dose at which cells are >50% viable
Where a name gives a salt, the structure may show the parent alone.
Give TD50 for every item shown.
Express the result in µM but write the number alone.

Prompt: Output measured TD50 for this item: CN(C)c1ccc2c(Nc3ccc(NC(=O)c4cccc(Nc5cc[n+](C)cc5)c4)cc3)ccnc2c1 [Cpd. CC]
Completion: 25

Prompt: Output measured TD50 for this item: C[n+]1ccc(Nc2cccc(C(=O)Nc3ccc(Nc4ccnc5cc(N)ccc45)cc3)c2)cc1.Cl.[Cl-] [Cpd. X]
Completion: 25

Prompt: Output measured TD50 for this item: Nc1ncn([C@H]2C[C@H](O)[C@@H](CO)O2)c(=O)n1 [Decitabine, 5-aza-2′-deoxycytidine, reference compound]
Completion: 12.5

Prompt: Output measured TD50 for this item: Cc1cc(Nc2ccc(NC(=O)c3ccc(Nc4ccnc5cc(N(C)C)ccc45)cc3)cc2)nc(N)n1 [Cpd. BB, hydrochloride]
Completion: 25

Prompt: Output measured TD50 for this item: CN(C)c1ccc2nccc(Nc3ccc(C(=O)Nc4ccc(Nc5cc[n+](C)cc5)cc4)cc3)c2c1 [Cpd. O]
Completion: 50

Prompt: Output measured TD50 for this item: C[n+]1ccc(Nc2cccc(NC(=O)c3ccc(Nc4ccnc5ccc(N)cc45)cc3)c2)cc1 [Cpd. K]
Completion: 12.5

Prompt: Output measured TD50 for this item: C[n+]1ccc(Nc2ccc(C(=O)Nc3ccc(Nc4ccnc5ccccc45)cc3)cc2)cc1.Cl.[Cl-] [Cpd. D]
Completion: 12.5

----------
# Tgt: DNMT1 (Homo sapiens)
# Measurement protocol: DNMT1 Inhibition Assay (Epigentek DNMT1 Activity/Inhibition kit)
# Type: biochemical
# Setup conditions: 100 μM SAM, 2.2 μg/ml DNMT1 enzyme
# Sequence (P26358 whole entry, species assumed): as the sequence (P26358 whole entry) above
Measurement label: pIC50
Quick note: pIC50 values are minus log10 of concentrations in mol/L.

Prompt: Output measured pIC50 for this item: O=C(Nc1ccc(SC2CCNC2)cc1)c1ccc(Nc2ccnc3ccccc23)cc1 (centres unmarked) [Cpd. EEE]
Completion: 5.26

Prompt: Output measured pIC50 for this item: O=C(Nc1ccc(SC2CCCNC2)cc1)c1ccc(Nc2ccnc3ccccc23)cc1 (centres unmarked) [Cpd. GGG]
Completion: 6.51

----------
# Tgt: DNMT1 (Homo sapiens, UniProt P26358)
# Measurement protocol: Selective depletion of DNMT1 by Western blot in treated HCT116 cells
# Assay type: cell-based
# Design: Protein extracts (equivalent to 100 μg) were isolated from HCT116 cells; endogenous in cells; host or cells: HCT116
# Setup conditions: HCT-116, 10 μM
# From the text: Biol. 2005, 11, 4727-41.]. For DNMT1, commercially available antibodies from Santa Cruz or New England Biolabs were used.
Where a name gives a salt, the structure may show the parent alone.
Give % DNMT1 protein level remaining at 10 µM for every item shown.
Express the result in % but write the number alone.

Prompt: Output measured % DNMT1 protein level remaining at 10 µM for this item: C[n+]1ccc(Nc2cccc(NC(=O)c3ccc(Nc4ccnc5ccc([N+](=O)[O-])cc45)cc3)c2)cc1
Completion: 210

Prompt: Output measured % DNMT1 protein level remaining at 10 µM for this item: C/C(=N\N=C(N)N)c1cccc(C(=O)Nc2ccc(Nc3ccnc4ccc(N(C)C)cc34)cc2)c1
Completion: 50

Prompt: Output measured % DNMT1 protein level remaining at 10 µM for this item: C/C(=N\N=C(N)N)c1cccc(NC(=O)c2ccc(Nc3ccnc4ccccc34)cc2)c1 [Cpd. JJ2, dihydrochloride]
Completion: 130

Prompt: Output measured % DNMT1 protein level remaining at 10 µM for this item: C[n+]1ccc(Nc2cccc(C(=O)Nc3ccc(Nc4ccnc5ccc(N)cc45)cc3)c2)cc1
Completion: 40

Prompt: Output measured % DNMT1 protein level remaining at 10 µM for this item: Cc1cc(Nc2ccc(C(=O)Nc3ccc(Nc4ccnc5ccc(N(C)C)cc45)cc3)cc2)nc(N)n1 [Cpd. HH, dihydrochloride]
Completion: 90

Prompt: Output measured % DNMT1 protein level remaining at 10 µM for this item: Cc1cc(Nc2cccc(C(=O)Nc3ccc(Nc4ccnc5ccc([N+](=O)[O-])cc45)cc3)c2)nc(N)n1 [RR2, dihydrochloride]
Completion: 100

Prompt: Output measured % DNMT1 protein level remaining at 10 µM for this item: C[n+]1ccc(Nc2ccc(NC(=O)c3ccc(Nc4ccnc5ccc([N+](=O)[O-])cc45)cc3)cc2)cc1 [Cpd. G, hydrochloride]
Completion: 95

----------
# Tgt: UniProt:P26358
# Measurement protocol: Selective depletion of DNMT1 by Western blot in treated HCT116 cells
# Type: cell-based
# Design: Protein extracts (equivalent to 100 μg) were isolated from HCT116 cells; endogenous in cells; host or cells: HCT116
# Setup conditions: HCT-116, 100 μM
Counter-ions that a name gives are not always drawn.
Measurement label: % DNMT1 protein level remaining at 100 µM (%)
Express the result in % but write the number alone.

Prompt: Output measured % DNMT1 protein level remaining at 100 µM for this item: C[n+]1ccc(Nc2ccc(NC(=O)c3ccc(Nc4ccnc5ccc(N)cc45)cc3)cc2)cc1 [Cpd. L]
Completion: 128

Prompt: Output measured % DNMT1 protein level remaining at 100 µM for this item: C[n+]1ccc(Nc2cccc(NC(=O)c3ccc(Nc4ccnc5ccc([N+](=O)[O-])cc45)cc3)c2)cc1 [Cpd. F]
Completion: 155

Prompt: Output measured % DNMT1 protein level remaining at 100 µM for this item: C[n+]1ccc(Nc2ccc(C(=O)Nc3ccc(Nc4ccnc5cc(N)ccc45)cc3)cc2)cc1 [Cpd. Y]
Completion: 77

Prompt: Output measured % DNMT1 protein level remaining at 100 µM for this item: C[n+]1ccc(Nc2cccc(NC(=O)c3ccc(Nc4ccnc5cc([N+](=O)[O-])ccc45)cc3)c2)cc1 [Cpd. R]
Completion: 165

Prompt: Output measured % DNMT1 protein level remaining at 100 µM for this item: CN(C)c1ccc2c(Nc3ccc(NC(=O)c4cccc(Nc5cc[n+](C)cc5)c4)cc3)ccnc2c1 [Cpd. CC]
Completion: 26

Prompt: Output measured % DNMT1 protein level remaining at 100 µM for this item: Cc1cc(Nc2ccc(NC(=O)c3ccc(Nc4ccnc5cc(N(C)C)ccc45)cc3)cc2)nc(N)n1 [Cpd. BB, hydrochloride]
Completion: 32

Prompt: Output measured % DNMT1 protein level remaining at 100 µM for this item: C[n+]1ccc(Nc2cccc(C(=O)Nc3ccc(Nc4ccnc5ccc([N+](=O)[O-])cc45)cc3)c2)cc1 [Cpd. J]
Completion: 59

----------
Give IC50 for every item shown.
# Test system: CMV-EE210 cell line containing the epigenetically silenced GFP transgene
# Measurement protocol: Cell-based GFP assay for demethylating activity (reactivation of silenced GFP transgene)
# Setup conditions: read-out: GFP IC50
Counter-ions that a name gives are not always drawn.
Express the result in µM but write the number alone.

Prompt: Output measured IC50 for this item: C[n+]1ccc(Nc2ccc(C(=O)Nc3ccc(Nc4ccnc5ccc(N)cc45)cc3)cc2)cc1 [Cpd. N]
Completion: 100

Prompt: Output measured IC50 for this item: C[n+]1ccc(Nc2ccc(C(=O)Nc3ccc(Nc4ccnc5cc(N)ccc45)cc3)cc2)cc1 [Cpd. Y]
Completion: 100

Prompt: Output measured IC50 for this item: Cc1cc(Nc2ccc(NC(=O)c3ccc(Nc4ccnc5cc(N(C)C)ccc45)cc3)cc2)nc(N)n1 [Cpd. BB, hydrochloride]
Completion: 100

Prompt: Output measured IC50 for this item: CN(C)c1ccc2nccc(Nc3ccc(C(=O)Nc4cccc(Nc5cc[n+](C)cc5)c4)cc3)c2c1 [Cpd. Q]
Completion: 12.5

Prompt: Output measured IC50 for this item: CN(C)c1ccc2c(Nc3ccc(NC(=O)c4cccc(Nc5cc[n+](C)cc5)c4)cc3)ccnc2c1 [Cpd. CC]
Completion: 6

Prompt: Output measured IC50 for this item: C[n+]1ccc(Nc2ccc(NC(=O)c3ccc(Nc4ccnc5ccc(N)cc45)cc3)cc2)cc1 [Cpd. L]
Completion: 50

Prompt: Output measured IC50 for this item: Cc1cc(Nc2ccc(NC(=O)c3ccc(Nc4ccnc5ccccc45)cc3)cc2)nc(N)n1 [Cpd. E, hydrochloride]
Completion: 12

Prompt: Output measured IC50 for this item: CN(C)c1ccc2nccc(Nc3ccc(C(=O)Nc4ccc(Nc5cc[n+](C)cc5)cc4)cc3)c2c1 [Cpd. O]
Completion: 12.5
